value type: melting point

Consider the following illustrative entries.
O=C(O)CCC(NC(=O)c1ccccc1)C(=O)O (stereo unspecified): 133 to 135 °C
N#CCC(=O)c1ccc(F)c(C(F)(F)F)c1: 51 to 53 °C
Cc1ccnc(S(N)(=O)=O)c1: 163 to 165 °C
CCNc1nc(C(=O)OCC)cs1: 92 to 94 °C
OCc1nc2cc(Br)ccc2[nH]1: 179 to 181 °C
COC(=O)c1cc(O)c(C)c(F)c1: 129 to 131 °C

Attention now shifts to the item below.
Ask: What does the data say about its melting point? Entry: OCCNCc1ccc(Cl)c(Cl)c1
Result: 54 to 56 °C

* * *

Quick reference for melting point among some molecules

Example entries and their recorded answers appear below.
COC(=O)c1cc(OC)ccn1: 43 to 45 °C
CCC(CC)CS(N)(=O)=O: 33 to 35 °C
COC(=O)c1ccc2c(c1)NCC(=O)N2: 252 to 254 °C
COC(=O)c1cnc(NC2CC2)s1: 157 to 159 °C
NS(=O)(=O)CCN1CCNCC1: 144 to 146 °C
O=Cc1c(Cl)c2ccccc2oc1=O: 113 to 115 °C

Ask: Entry under review: CC(C)(C)OC(=O)N1CCCc2cccc(O)c21 . Reported melting point?
Result: 60 to 62 °C

* * *

value type: melting point

Check out these entries, answers already filled in.
O=C1CCCc2c1sc1ccccc21: 113 to 115 °C
NS(=O)(=O)c1cc(C(=O)O)cs1: 194 to 196 °C
CCC1Oc2c(Cl)cccc2NC1=O (configuration not stated): 139 to 141 °C
COc1ccc(C(=O)O)cc1S(=O)(=O)NCc1ccncc1: 225 to 227 °C
O=Cc1ccc(OCCBr)c(Cl)c1: 61 to 63 °C
CCN(CC)C(C(N)=O)c1ccccc1 (configuration not stated): 141 to 143 °C

Ask: Any idea what melting point was measured for O=C(O)CCCS(=O)(=O)N1CCCC1 ?
Result: 130 to 132 °C

* * *

Recorded melting point values for a group of molecules are listed next.

Record excerpt, results attached:
Cc1csc(Sc2ccc(N)cc2Cl)n1: 112 to 114 °C
Nc1nc(-c2ccc(Cl)cc2)n[nH]1: 219 to 221 °C
CC(C)c1ccc(-n2ccnc2SCC(=O)O)cc1: 80 to 82 °C
O=c1cc(CCl)nc2scnn12: 183 to 187 °C
O=C(O)C1CCCN1C(=O)Nc1ccccc1 (centres undefined): 161 to 163 °C
N#Cc1ccc(-c2ccncc2)[nH]c1=O: 339 to 341 °C

Ask: Could you share which melting point value was measured for N#Cc1ccc2c(c1)C=CS2(=O)=O ?
Result: 149 to 151 °C

Ask: Same question for CN1CC(=O)Nc2ccc(Cl)nc21 please.
Result: 233 to 235 °C

* * *

value type: melting point

Worked examples, 5 molecules total:
COC(=O)c1ccccc1CS(=O)(=O)Cl: 85 to 87 °C
CCc1cc(Cl)nc(-c2ccncc2)n1: 99 to 101 °C
NC(=S)Cn1nc2ccccn2c1=O: 204 to 206 °C
Cc1cccc(C2CC2C(=O)O)c1 (stereo not drawn): 88 to 90 °C
CC(C)(C)OC(=O)N1CCC(C)(C(=O)O)CC1: 149 to 151 °C

Ask: Given the entry O=c1[nH]ncc2c[nH]nc12 , report its measured melting point.
Result: 266 to 268 °C

Ask: # iterate: COC(=O)CC(=O)c1ccncc1
Result: 70 to 72 °C

Ask: Also need CC(=CC(=O)O)c1cccc(Cl)c1 , thanks.
Result: 156 to 158 °C

Ask: Try NC(=O)CSc1ccccc1C(=O)O next.
Result: 210 to 212 °C

Ask: Do the same for Cc1cc(C)c2c(C#N)c[nH]c2n1 please
Result: 316 to 318 °C

Ask: Cool, now CNCCNS(=O)(=O)c1ccc(C)cc1
Result: 84 to 86 °C

Ask: Okay, and N#Cc1c(NC(=O)CCl)oc(-c2ccccc2)c1-c1ccccc1 ?
Result: 155 to 157 °C

Ask: Similarly, CN1CCN(S(=O)(=O)c2cccc(C(=O)O)c2)CC1 ?
Result: 230 to 232 °C
